Molecular target: Ca^+2-calmodulin dependent myosin light chain phosphorylation (Bos taurus, UniProt Q28824)
Assay: Inhibition of myosin light chain phosphorylation (MLCP), Silver et al.
Format: biochemical
Conditions: 100µM; read-out: Antag. of MLCP (percent inhibition of myosin light chain phosphorylation)
Procedure: The data reported herein was obtained at a six minute time-point rather than the 1.5, 5 and 12 minute time points indicated in the superprecipita- tion assay of the Silver et al paper. The following examples illustrate the preparation of a representative number of compounds of this invention. […] Inhibition of super- precipitation (Antag. of Actin-Myosin interaction) is expressed as percent inhibition (mean ± standard error of the mean for at least 3 separate experiments) at a compound concentration. […]
Threshold rule: inhibition at 100 µM greater than or equal to 70% is 1 (yes); below that, 0 (no).

// known answers, use as guide
> print(dat)
                                   compound  answer.label
1  COC(COC(=O)C1=C(C)NC2=C(C(=O)CNC2)C1c1cccc(Cl)c1Cl)c1ccccc1 (stereo not shown)       1 (yes)
2  CO[C@H](COC(=O)C1=C(C)NC2=C(C(=O)CNC2)C1c1c(F)c(F)c(F)c(F)c1F)c1ccccc1 (stereo partly shown) [Example 7]       1 (yes)
3  CC1=C(C(=O)OCC(C)(C)Oc2ccccc2)C(c2c(F)c(F)c(F)c(F)c2F)C2=C(CNCC2=O)N1 (stereo not shown)        0 (no)
4  CC1=C(C(=O)OCCOc2cccc(Cl)c2Cl)C(c2c(F)c(F)c(F)c(F)c2F)C2=C(CNCC2=O)N1 (stereo not shown)       1 (yes)
5  COC(COC(=O)C1=C(C)NC2=C(C(=O)CNC2)C1c1cccc(Cl)c1)c1ccccc1 (stereo not shown)        0 (no)

Next up:
Q: Is the recorded value of inhibition at 100 µM equal to or greater than 70% for this compound? CC1=C(C(=O)OCCOc2cccc(Cl)c2Cl)C(c2c(F)ccc(Cl)c2Cl)C2=C(CNCC2=O)N1 (stereo not shown)
A: 0 (no)
